experiment: forskolin-driven CRE-LacZ activity in PC12 – cell-based, CRE-LacZ reporter, forskolin-stimulated, primary screen (AID 1146); details: luminescence, 4.5 h, higher = more signal, called active from +8 up or from −8 down;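 also: PC12 cells with 6xCRE LacZ reporter stimulated by forskolin 10 µM; beta-galactosidase reporter signal reflecting CREB driven transcription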
This section presents molecules with their documented z-score values.

{"columns": ["MOLECULE", "z-score"],
 "data": [
  ["COc1ccc([Si](C)(C)[C@@H]2[C@@H](CCO)O[C@]3(C(=O)N(Cc4ccccc4)c4ccc(N5CCOC5=O)cc43)[C@H]2C)cc1", -0.205],
  ["CCCNC(=O)[C@@]1(Sc2ccc(C)cc2)CC(=O)N(C2Cc3ccccc3C2)[C@@H]1c1ccc(CO)cc1I", 1.73],
  ["COc1ccc([Si](C)(C)[C@@H]2[C@@H](CCO)O[C@]3(C(=O)N(Cc4ccccc4)c4ccc(N5C(=O)c6cccc7cccc5c67)cc43)[C@H]2C)cc1", 0.302],
  ["CCCCC(CC)C(O)C1C=CC2C(=O)N(C)C(=O)C2N1Nc1ccccc1 (configuration not stated)", 0.184],
  ["NC(=O)NCC#Cc1ccc2c(c1)[C@]1(C(=O)N2)[C@H](c2ccccc2OCCO)N2[C@H](c3ccccc3)[C@H](c3ccccc3)OC(=O)[C@H]2[C@@H]1C(=O)O", 1.36],
  ["COC(=O)[C@@]1(Cc2ccc(F)cc2)[C@H]2c3cc(C(=O)N4CCCC4)n(CCc4c[nH]c5ccccc45)c3C[C@H]2CN1C(=O)c1ccccc1", 0.668],
  ["CCOC(=O)C[C@H]1[C@H](OC(=O)c2ccc(C(=O)c3ccccc3)cc2)[C@@H](NC(=O)CC(C)C)c2cc(OCCCO)ccc2N1C(=O)c1ccccc1", -0.443]
]}
